- EXPERIMENTAL SYSTEM: T1, human GLP-1 receptor (human, UniProt P43220 24-463)
- T1 construct: whole, on cells; Used as crude membranes of stably transfected HEK293 cells; also called hGLP1R; hGLP-1R
- PROTOCOL DETAILS: SPA, [125I]-GLP-1 displacement, hGLP-1R membranes
ATTRIBUTE MEASURED: pKi
Just the number, please; pKi means minus log10 of the concentration in mol/L.

Ask: Would you kindly share the measured pKi for YXEGTXTSDYSIXLDEKAQXEFIEYLIEGGPSSG (Aib2; αMeF6; αMeL13; K17((2-[2-(2-Amino-ethoxy)-ethoxy]-acetyl)2-(γ-Glu)-CO-(CH2)18-CO2H); Aib20; C-terminal NH2) [Example 124] ?
Reply: 8.31

Ask: Would you kindly share the measured pKi for YXEGTXTSDASIXLDKKAQXAFIEYLIEGGPSSGAPPPS (Aib2; αMeF6; αMeL13; K17((2-[2-(2-Amino-ethoxy)-ethoxy]-acetyl)2-(γ-Glu)-CO-(CH2)18-CO2H); Aib20; C-terminal NH2) [Example 145] ?
Reply: 8.65

Ask: Would you kindly share the measured pKi for YXEGTXTSDXSIXLDEKAQXTFIXYLIEGGPSSGAPPPS (Aib2; αMeF(2F)6; Aib10; αMeL13; K17((2-[2-(2-Amino-ethoxy)-ethoxy]-acetyl)2-(γ-Glu)-CO-(CH2)18-CO2H); Aib20; D-Glu24; C-terminal NH2) [Example 160] ?
Reply: 7.84
